testMethodNotes: Kanamycin and tobramycin plasma PK after IV bolus in dogs
Type: in vivo, Beagle dogs
experimentalSetup: female, Beagle, dog, plasma, iv, 0.1 mg, single IV bolus 0.10 mg; 120 min
assayMetric: concentration at 120 min (ng/mL)
Give the quantity in ng/mL, number only.

Form: compound = NC[C@H]1O[C@H](O[C@H]2[C@H](O)[C@@H](O[C@H]3O[C@H](CO)[C@@H](O)[C@H](N)[C@H]3O)[C@H](N)C[C@@H]2N)[C@H](O)[C@@H](O)[C@@H]1O ; concentration at 120 min = 10

----------
testMethodNotes: Tigecycline plasma PK and % F after PO enteric-coated capsule in dogs
Assay type: in vivo, Beagle dogs
experimentalSetup: female, beagle, dog, plasma, po, 30 mg, Tigecycline Plasma Concentration, […]; PO 30 mg unformulated enteric-coated capsule, SC430; mean
Procedure: Adult beagle dogs weighing approximately 9 to 15 kg were used in the study. […] Room temperature was set to be maintained between approximately 20±5° C. Relative humidity was monitored but not controlled. […] The unknown concentration in dog plasma samples was determined by interpolation of the peak area ratios of analyte:internal standard versus the ratio of their nominal concentrations into the regression line obtained from calibration standards spiked in pooled dog plasma. […]
assayMetric: concentration at 24 hr (ng/mL)
Your answer should be a plain number; it is taken to be in ng/mL.

Measured concentration at 24 hr, CN(C)c1cc(NC(=O)CNC(C)(C)C)c(O)c2c1C[C@H]1C[C@H]3[C@H](N(C)C)C(O)=C(C(N)=O)C(=O)[C@@]3(O)C(O)=C1C2=O [Tigecycline] : 0
